Entry source: patent US9682141B2

Consider the following IC50 values measured on PI3K α (Homo sapiens (Human), UniProt P42336).
Sequence (P42336 whole entry): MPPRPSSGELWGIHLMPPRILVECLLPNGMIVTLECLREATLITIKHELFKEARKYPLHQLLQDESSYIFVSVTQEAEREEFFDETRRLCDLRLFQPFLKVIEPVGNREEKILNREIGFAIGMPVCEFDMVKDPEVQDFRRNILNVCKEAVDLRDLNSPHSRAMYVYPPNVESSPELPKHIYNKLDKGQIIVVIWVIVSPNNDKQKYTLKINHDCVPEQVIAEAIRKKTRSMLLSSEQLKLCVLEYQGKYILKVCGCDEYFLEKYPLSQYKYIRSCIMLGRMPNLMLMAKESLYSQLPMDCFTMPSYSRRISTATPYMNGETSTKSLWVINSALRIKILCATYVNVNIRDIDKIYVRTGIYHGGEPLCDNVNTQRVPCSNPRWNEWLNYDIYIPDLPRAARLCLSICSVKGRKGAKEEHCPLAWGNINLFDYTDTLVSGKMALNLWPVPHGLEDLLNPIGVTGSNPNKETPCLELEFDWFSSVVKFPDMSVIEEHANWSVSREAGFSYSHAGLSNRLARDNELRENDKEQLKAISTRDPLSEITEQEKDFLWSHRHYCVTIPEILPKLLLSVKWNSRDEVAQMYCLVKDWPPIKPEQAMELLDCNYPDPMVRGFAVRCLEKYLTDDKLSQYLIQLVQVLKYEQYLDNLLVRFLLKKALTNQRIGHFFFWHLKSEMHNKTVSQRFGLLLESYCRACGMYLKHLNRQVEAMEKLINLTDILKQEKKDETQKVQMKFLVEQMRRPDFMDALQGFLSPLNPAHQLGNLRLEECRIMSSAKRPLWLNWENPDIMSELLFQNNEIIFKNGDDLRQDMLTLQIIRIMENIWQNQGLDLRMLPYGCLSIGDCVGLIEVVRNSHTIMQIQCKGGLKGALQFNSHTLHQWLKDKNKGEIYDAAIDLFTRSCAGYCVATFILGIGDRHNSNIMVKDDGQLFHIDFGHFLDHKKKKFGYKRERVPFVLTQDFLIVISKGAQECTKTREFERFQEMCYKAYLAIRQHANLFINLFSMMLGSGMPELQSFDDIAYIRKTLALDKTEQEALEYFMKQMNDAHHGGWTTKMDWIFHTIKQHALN
Sequence (P27986 whole entry partner): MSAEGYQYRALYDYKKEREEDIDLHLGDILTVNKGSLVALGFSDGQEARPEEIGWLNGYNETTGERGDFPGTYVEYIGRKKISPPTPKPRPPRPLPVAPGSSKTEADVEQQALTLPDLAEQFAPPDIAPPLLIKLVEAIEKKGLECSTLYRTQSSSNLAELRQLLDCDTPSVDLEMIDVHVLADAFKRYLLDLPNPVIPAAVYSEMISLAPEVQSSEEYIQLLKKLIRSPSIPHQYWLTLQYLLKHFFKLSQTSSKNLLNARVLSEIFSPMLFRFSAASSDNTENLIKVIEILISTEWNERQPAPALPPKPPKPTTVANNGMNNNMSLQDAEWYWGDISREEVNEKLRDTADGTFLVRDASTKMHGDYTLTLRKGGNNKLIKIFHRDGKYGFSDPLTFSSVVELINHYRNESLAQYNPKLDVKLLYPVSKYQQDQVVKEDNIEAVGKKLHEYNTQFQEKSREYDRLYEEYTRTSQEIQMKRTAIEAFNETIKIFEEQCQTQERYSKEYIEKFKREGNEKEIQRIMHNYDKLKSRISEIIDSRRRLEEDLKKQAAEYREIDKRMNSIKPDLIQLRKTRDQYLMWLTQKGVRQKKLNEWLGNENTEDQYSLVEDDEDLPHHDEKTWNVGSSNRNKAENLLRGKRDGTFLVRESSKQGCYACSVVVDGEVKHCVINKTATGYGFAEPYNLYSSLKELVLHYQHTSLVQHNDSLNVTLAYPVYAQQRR

Known IC50 results, listed for orientation:
CC(C)N1CCN(c2cnc3ccc(-c4ccc5oc(N)nc5c4)cc3n2)C(=O)C1    > 10 µM
Nc1nc2cc(-c3cnc4ccc(N5C6CCC5COC6)nc4c3)ccc2o1    < 10 µM

Attention now shifts to the item below.
Sure, the documented IC50 for Nc1nc2cc(-c3ccc4ncc(C(=O)N5C6CCC5COC6)n4c3)ccc2o1 is < 0.1 µM

* * *

Assign IC50 to each entry below.
# tested_on: PI3K α (Homo sapiens (Human), UniProt P42336)

// known answers, use as guide
Nc1nc2cc(-c3ccn4ncc(-c5ccncc5)c4n3)ccc2o1    < 100 nM
Nc1nc2cc(-c3ccc4ncc(N5CCCC5)nc4c3)ccc2o1    < 100 nM
CC1CN(c2cnc3ccc(-c4ccc5oc(N)nc5c4)cc3n2)CCO1 (centres unmarked)    < 100 nM
C[C@@H]1CN(C2CN(c3cnc4ccc(-c5ccc6oc(N)nc6c5)nc4n3)C2)CCN1C    < 100 nM
CC(=O)Nc1nc2cc(-c3ccc4oc(N)nc4c3)ccc2o1    > 10000 nM
CCN(CC)CCCNc1cnc2ccc(-c3ccc4oc(N)nc4c3)cc2n1    < 100 nM

Required: IC50, one value per compound below.
1. CN(C)[C@@H]1CCN(c2cnc3ccc(-c4ccc5oc(N)nc5c4)cc3n2)C1
2. CC(C)(C)N1CCN(C(=O)c2cnc3ccc(-c4ccc5oc(N)nc5c4)cn23)CC1
3. Nc1nc2cc(-c3ccc4ncc(-c5cccnc5)nc4c3)ccc2o1
4. CN1CCN(c2ccnc3ccc(-c4ccc5oc(N)nc5c4)cc23)CC1

Output:
["< 100 nM", "< 100 nM", "< 100 nM", "< 1000 nM"]

Please look at the items below and tell me IC50 for each one, in order.
1. C[C@H]1CN(C2CN(c3cnc4ccc(-c5ccc6oc(N)nc6c5)cc4n3)C2)CCN1
2. Nc1nc2cc(-c3nc4cc(-c5cccnc5)cnc4s3)ccc2o1
3. Nc1nc2cc(-c3ccc4ncc(N5CC(N6CCN(C7CC7)CC6)C5)nc4c3)ccc2o1
4. CS(=O)(=O)N1CCN(C2CCN(c3cnc4ccc(-c5ccc6oc(N)nc6c5)cc4n3)CC2)CC1

Output:
["< 100 nM", "> 10000 nM", "< 100 nM", "< 100 nM"]
